pIC50: −log10 of the molar value.
Below are compounds with their pIC50 as measured on Baker’s yeast α-glucosidase enzyme (Saccharomyces cerevisiae, UniProt P53341).
Sequence (P53341 whole entry): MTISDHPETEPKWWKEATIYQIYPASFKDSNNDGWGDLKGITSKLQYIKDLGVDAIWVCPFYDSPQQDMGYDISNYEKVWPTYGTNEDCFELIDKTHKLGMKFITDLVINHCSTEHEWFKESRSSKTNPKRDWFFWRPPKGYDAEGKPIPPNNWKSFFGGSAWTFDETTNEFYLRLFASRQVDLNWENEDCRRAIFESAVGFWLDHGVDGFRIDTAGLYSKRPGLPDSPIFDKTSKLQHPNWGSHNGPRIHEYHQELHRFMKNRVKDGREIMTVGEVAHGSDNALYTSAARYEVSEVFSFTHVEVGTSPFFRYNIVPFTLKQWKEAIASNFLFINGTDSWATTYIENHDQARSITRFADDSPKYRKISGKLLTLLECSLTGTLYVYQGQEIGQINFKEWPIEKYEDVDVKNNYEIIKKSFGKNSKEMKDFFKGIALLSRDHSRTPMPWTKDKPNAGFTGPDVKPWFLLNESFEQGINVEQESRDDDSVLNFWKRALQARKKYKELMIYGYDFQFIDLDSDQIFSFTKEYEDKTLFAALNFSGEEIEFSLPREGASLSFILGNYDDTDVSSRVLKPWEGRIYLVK
ENDPOINT_LABEL: pIC50

1. CC(C)(C)c1ccc(Cn2cc(CSc3nc4ccccc4s3)nn2)cc1 [Compound 6i] :: 4.53
2. Fc1cccc(Cn2cc(CSc3nc4ccccc4s3)nn2)c1 [Compound 6d] :: 4.21
3. Fc1ccccc1Cn1cc(CSc2nc3cc(Cl)ccc3s2)nn1 [Compound 6j] :: 4.34
4. Clc1ccc2sc(SCc3cn(Cc4ccccc4Br)nn3)nc2c1 [Compound 6k] :: 4.32
